The origin of these recorded values is patent US6593358B1.

Recorded melting point by entry
observation_type: melting point

[[record]]
compound_structure = "Oc1cc(-c2cccs2)n[nH]1"
observation_type = "melting point"
test_value = "144 to 146 °C"

[[record]]
compound_structure = "ClCCOc1cc(-c2cccs2)n[nH]1"
observation_type = "melting point"
test_value = "134 to 138 °C"

[[record]]
compound_structure = "CCCCc1cc(-c2cccs2)n[nH]1"
observation_type = "melting point"
test_value = "47 to 48 °C"

[[record]]
compound_structure = "CCCCCc1cc(-c2cccs2)n[nH]1"
observation_type = "melting point"
test_value = "68 to 73 °C"

[[record]]
compound_structure = "Cc1cc(-c2cccs2)n[nH]1"
observation_type = "melting point"
test_value = "133 to 135 °C"

[[record]]
compound_structure = "CCCCCCc1cc(-c2cccs2)n[nH]1"
observation_type = "melting point"
test_value = "53 to 55 °C"

